# Tested on: Swiss albino, white male mice
# assayRemarks: acute toxicity and synergism of acute toxicity in mice
# Assay type: in vivo
# details: Dimetilan 8 + synergist 240 mg/kg i.p.; 48 hours; eight mice
Rule for this label: 1 means number of mice dead, with Dimetilan is less than 1; -1 means number of mice dead, with Dimetilan is at least 1.

Examples from the recorded data:
C#CCON=C(C)c1ccc(Cl)cc1; -1
C#CCOCc1ccc(Cl)c(Cl)c1; 1
C#CCn1nc(Cl)c2ccccc21; 1

A record lists `C#CCn1ncc2cc([N+](=O)[O-])ccc21` . Is its number of mice dead, with Dimetilan below 1? 1

A record lists `C#CCOCc1cccc2ccccc12` . Is its number of mice dead, with Dimetilan below 1? -1

A record lists `C#CCOCc1cccc(Cl)c1[N+](=O)[O-]` . Is its number of mice dead, with Dimetilan below 1? -1

A record lists `C#CCON=Cc1ccc(Cl)cc1Cl` . Is its number of mice dead, with Dimetilan below 1? 1

A record lists `C#CCOCc1cccc([N+](=O)[O-])c1Cl` . Is its number of mice dead, with Dimetilan below 1? -1

---

# System: male mice
# assayRemarks: extension of sleeping time of depressant drugs by synergists
# Type: in vivo, male mice (Swiss albino white)
# details: Noludar 110 mg/kg; synergist 110 mg/kg; treated/control
valueType: Relative Sleeping Time, Noludar
Answer using only a numeral; do not append any unit.

Sample answers from the record:
C#CCOCc1ccc(Cl)c([N+](=O)[O-])c1; 2.1
C#CCOCc1c(Cl)ccc(Cl)c1Cl; 1.1
C#CCOCc1c(Cl)cccc1[N+](=O)[O-]; 2.4

# context switch: different compound, same Relative Sleeping Time, Noludar
Look up and report measured Relative Sleeping Time, Noludar for this entry: `C#CCON=C(C)c1ccc2ccccc2c1` 1.4

---

# Tested on: Swiss albino, white male mice
# assayRemarks: acute toxicity and synergism of acute toxicity in mice
# Assay type: in vivo
# details: Dimetilan 8 + synergist 240 mg/kg i.p.; 48 hours; eight mice
Below: a set of entries, each annotated with reported number of mice dead, with Dimetilan.
Answer using only a numeral; do not append any unit.

C#CCOC(c1ccc(Cl)cc1Cl)C(C)[N+](=O)[O-] (stereo not drawn); 7
C#CCOCc1c(Cl)cccc1Cl; 6
C#CCON=C(C)c1ccc2ccccc2c1; 4
C#CCON=Cc1ccc(N(C)C)cc1; 0
C#CCOCc1ccc(Cl)c(Cl)c1Cl; 0

# context switch: different compound, same number of mice dead, with Dimetilan
Look up and report measured number of mice dead, with Dimetilan for this entry: `C#CCOCc1ccc([N+](=O)[O-])cc1Cl` 4

---

# Tested on: IN/WHO strain house flies
# assayRemarks: topical application, percent kill after 24 hours, susceptible IN/WHO strain
# Type: in vivo, female)
# details: Mobam 0.20 + synergist 1 μg/fly
Below: a set of entries, each annotated with reported percent kill after 24 hours, with Mobam.
Respond with the bare value in %.

C#CCOCc1c(Cl)cccc1Cl; 100
C#CCOCc1c(Cl)cccc1[N+](=O)[O-]; 100
C#CCON=Cc1cccc([N+](=O)[O-])c1; 73

Look up and report measured percent kill after 24 hours, with Mobam for this entry: `C#CCOCc1ccc([N+](=O)[O-])cc1Cl` 97

---

Below: a set of entries, each annotated with reported percent kill after 24 hours, synergist alone (GS 13005 part of Table XXXI).
# Test system: IN/WHO strain house flies
# assayRemarks: topical application, percent kill after 24 hours, susceptible IN/WHO strain
# Assay type: in vivo, female)
# details: GS 13005 0, synergist 1 μg/fly
Respond with the bare value in %.

Sample answers from the record:
C#CCOCc1cccc2ccccc12 [II-R, α-napthylmethyl 2-propynyl ether]; 0
C#CCOCc1ccc(Cl)c([N+](=O)[O-])c1 [II-M]; 10
C#CCOCc1cccc([N+](=O)[O-])c1Cl [II-L]; 3

# context switch: different compound, same percent kill after 24 hours, synergist alone (GS 13005 part of Table XXXI)
Look up and report measured percent kill after 24 hours, synergist alone (GS 13005 part of Table XXXI) for this entry: C#CCOCc1ccccc1[N+](=O)[O-] [II-P, 2-nitrobenzyl 2-propynyl ether] 0
